test system: HL-60(TB) leukemia; test: NCI tumour cell line growth inhibition, 48 h
result_type: GI50

Example compounds with recorded GI50:
[
  {
    "compound": "COc1ccc(-c2cn(-c3cccc(C(=O)/C=C/c4cc(OC)c(OC)c(OC)c4)c3)c(=O)[nH]2)cc1",
    "GI50": "4280 nM"
  },
  {
    "compound": "Cc1cc(-c2ccc(C3C(C#N)=C(N)Oc4c3c(=O)oc3ccccc43)cc2)cnc1F (stereo unspecified)",
    "GI50": "43400 nM"
  }
]

For Nc1cc2ccccc2c(O)c1O the compound record lists GI50 as 2080 nM

For Cc1ccc(/C(=C/C=C(/C#N)C(N)=O)Sc2ncnn2C)cc1 the compound record lists GI50 as 12300 nM

// field: GI50; key: Cc1cnc(NC2CCOCC2)nc1-n1cnc(C(=O)N[C@H](CN)c2cc(F)cc(Cl)c2)c1 ; value = 19.6 nM

====

system: OVCAR-5 ovarian; test: NCI tumour cell line growth inhibition, 48 h
result_type: TGI

Here is how some compounds turned out for TGI.
[
  {
    "compound": "NC(=O)c1cc(Cl)ccc1NC(=O)COc1ccccc1",
    "TGI": "> 100 µM"
  },
  {
    "compound": "CC1(C)C2CCC(=O)C1C(OCc1ccccc1)C2 (stereo not drawn)",
    "TGI": "> 100 µM"
  },
  {
    "compound": "Cc1ccccc1N1C(N)=C(C#N)C(C#N)(C#N)C1c1ccccc1 (stereo not drawn)",
    "TGI": "41.5 µM"
  },
  {
    "compound": "COc1ccc2[nH]c(Cl)c(/C=C3/C(=O)N(c4ccccc4)c4ccccc43)c2c1",
    "TGI": "94.8 µM"
  },
  {
    "compound": "O=c1oc2ccccc2c(O)c1C(C/C(CCN1CCCC1)=N/O)c1ccccc1 (stereo not drawn)",
    "TGI": "> 100 µM"
  },
  {
    "compound": "CCCCC(=O)Nc1ccc2cc(C(=O)OC)c(Cl)nc2n1",
    "TGI": "> 100 µM"
  },
  {
    "compound": "O=C1OC(CC(=O)c2ccc(Cl)cc2)C(Cl)=C1Cl (stereo not drawn)",
    "TGI": "> 100 µM"
  },
  {
    "compound": "CC12C=C[C@]3(CC[C@@H]4[C@@](C)(CO)CCC[C@]4(C)C3CC1)C2 (stereo partly drawn)",
    "TGI": "10.6 µM"
  }
]

Sure, the documented TGI for COC(=O)CCC1=C(C)C(C)=N/C1=C\c1[nH]c(-c2ccc[nH]2)cc1OC is 12.2 µM

// TGI value for C/C(=N\NC(=O)c1ccccc1N)c1ccccc1O : > 100 µM

O=C(O)C1(Cc2ccccc2)Cc2ccccc2C1 has a reported TGI of > 100 µM

GET /value?item= CN(C)C(=S)/N=c1\ss/c(=N\C(=S)N(C)C)n1C1CCCCC1 &field=TGI returns > 100 µM

TGI measured on CN1C(=O)C23CC4(C56CC78SSC(CO)(C(=O)N7C5Nc5ccccc56)N(C)C8=O)c5ccccc5NC4N2C(=O)C1(CO)SS3 (stereo not drawn) = 0.294 µM

====

tested on: HT29 colon; experiment: NCI tumour cell line growth inhibition, 48 h; in the data active = GI50 below about 0.43 µM; inactive = the rest
Where a SMILES comes first, the peptide text is derived from it. [ ]: non-standard residue; d: D form. The star is where a group is joined. ξ: configuration not given here. NMeF = CN[C@@H](Cc1ccccc1)C(=O)O; NMeN = CN[C@@H](CC(N)=O)C(=O)O; NMeV = CN[C@H](C(=O)O)C(C)C; ξNMeV = CNC(C(=O)O)C(C)C; Boc = CC(C)(C)OC(=O)*; ξNMeA = CNC(C)C(=O)O; ξV = CC(C)C(N)C(=O)O
Answer with one of the outcomes given here: active, inactive

[
  {
    "molecule": "Cc1ccc(/C(=C/C=C(/C#N)C(N)=O)Sc2ncnn2C)cc1",
    "assay_system": "HT29 colon",
    "assigned_label": "inactive"
  },
  {
    "molecule": "COc1cc(/C=C\\c2cc(/C=C\\c3ccc(O)c(OC)c3)n(C(=O)COc3ccccc3)n2)ccc1O",
    "assay_system": "HT29 colon",
    "assigned_label": "inactive"
  },
  {
    "molecule": "O=C(Cc1ccc(OCc2ccccc2)cc1)NCc1ccc2c(c1)OCO2",
    "assay_system": "HT29 colon",
    "assigned_label": "inactive"
  },
  {
    "molecule": "COC(=O)[C@]12CC[C@@H](C(=O)/C=C/c3cccnc3)[C@@H]1[C@H]1CC[C@@H]3[C@@]4(C)C/C(=C/c5cccnc5)C(=O)C(C)(C)[C@@H]4CC[C@@]3(C)[C@]1(C)CC2",
    "assay_system": "HT29 colon",
    "assigned_label": "active"
  },
  {
    "molecule": "c1ccc(-c2cccc(-c3ccccn3)n2)nc1",
    "assay_system": "HT29 colon",
    "assigned_label": "active"
  }
]

Status in this test for CCN1CCN(Cc2ccc(NC(=O)c3nc4ccc5[nH]ncc5c4c4c3CCCC4)cc2C(F)(F)F)CC1 ? inactive

Outcome logged for Nc1c(C(=O)c2cccc(-c3ccncc3)c2)cnn1-c1ccc(F)cc1 in this assay: inactive

Could you please tell me the result logged for COc1cccc(-n2ncc3c(N/N=C/c4cccc(F)c4)ncnc32)c1 in this assay? inactive

Look up the recorded call for CC(C)CC(=O)[O-].N.N.N.N.N.[Co+3].[O-][Cl+3]([O-])([O-])[O-] in this test. inactive

Which outcome was assigned to COC(=O)C(C)N(C)C(=O)[C@H](CC(N)=O)N(C)C(=O)[C@@H]1CCCN1C(=O)[C@H](C(C)C)N(C)C(=O)C(C(C)C)N(C)C(=O)[C@H](Cc1ccccc1)N(C)C(=O)C(NC(=O)OC(C)(C)C)C(C)C (stereo not given in full) (Boc-[ξV][NMeF][ξNMeV][NMeV]P[NMeN][ξNMeA]-OMe) in this test? inactive

// outcome(item) with item = CC(C)CNC(=O)c1ccc(NC(=O)N(CC(C)C)C(=O)c2ccc(N)c(OCCCN)c2)c(OCCCN=C(N)N)c1 inactive

For O=C(Nc1ccc(-n2ccc3c(NC(=O)c4ccccc4)ncnc32)cc1)c1ccc(Cl)c(C(F)(F)F)c1 , which call appears in the assay record? inactive

Test call for this molecule, please: CC(=O)O[C@H]1[C@@H]2OC(=O)C3(CC3)C2C[C@H]2O[C@]2(C)CC/C=C(\C)CCC[C@@H]1C (stereo not given in full) inactive

For COC(=O)C12OCC34C(CC5C(C)=C(O)C(=O)CC5(C)C3C(O)C1O)OC(=O)C(OC(=O)C=C(C)C)C24 (stereo not given) , what call appears in the results of this test? active

For COC(=O)CCC1=C(C)C(C)=N/C1=C\c1[nH]c(-c2ccc[nH]2)cc1OC , which call appears in the assay record? active
